Tested on: SK-MEL-28
procedureText: NCI tumour cell line growth inhibition, 48 h
The source made the active and inactive calls. Cut-off read from the data, not from the text of the source: active = GI50 up to about 1.1 µM and inactive = higher.
Provide the reported GI50 of each item.

CC(C)=CCC[C@@H](C)C1=C(O)C(=O)C(C)=C(c2c(I)c(=O)n(C)c(=O)n2C)C1=O ... > 100 µM (inactive)

Provide the reported GI50 of each entry below, same order.
1. COc1cccc(NC(=S)Nn2c(C)nc3ccccc3c2=O)c1
2. C[Si](C)(C)/C=C/CN1C(=O)CCC1O (stereo unspecified)
3. c1cc2sc1CSCCSCCSC2
4. CCN1C=C/C(=C\C=C\c2cc[n+](CC)c3ccccc23)c2ccccc21
5. Nc1ccc2nc(Nc3ccc(Cl)c(Cl)c3)cnc2c1
6. CCOP(=O)(OCC)C(c1ccc(F)cc1)N(C(=O)NC(F)(F)F)c1cccc(C(F)(F)F)c1 (stereo unspecified)
7. C=C(Cl)[C@](Cl)(CBr)CC[C@@H](Br)C(C)(C)Cl [HALOMON]

Output:
["> 100 µM (inactive)", "> 100 µM (inactive)", "> 100 µM (inactive)", "8.99 µM (inactive)", "17.6 µM (inactive)", "> 100 µM (inactive)", "1.73 µM (inactive)"]

Provide the reported GI50 of each entry below, same order.
1. CC1(C)Oc2ccc(Cl)cc2C12CC2
2. CC(=O)C1C(=O)C(C(C)=O)C2C3C=CC(C3)C12 (stereo unspecified)
3. Clc1cccc(-c2sc(-c3cccs3)cc2Cc2cccs2)c1

Output:
1: 17.9 µM (inactive); 2: > 100 µM (inactive); 3: > 10 µM (inactive)

Provide the reported GI50 of each entry below, same order.
1. [N-]=[N+]=NC1(c2ccccc2)C(=O)Nc2ccccc2C1=O (stereo unspecified)
2. COc1cccc(C(C#N)NNC(=O)c2c(Cl)c(Cl)c(Cl)c(Cl)c2-c2nc3cc(C(=O)c4ccccc4)ccc3[nH]2)c1O (stereo unspecified)
3. COC(=O)CCC(=O)Nc1cc(C)ccc1C
4. COc1ccc(-c2c(C3=NCCCN3)nnn2-c2ccccc2)cc1
5. Cc1cccc2c1CC1(C2)Cc2c(C)cccc2C1=O (stereo unspecified)

Output:
56.2 µM (inactive)
9.73 µM (inactive)
> 100 µM (inactive)
> 100 µM (inactive)
21.6 µM (inactive)
